Values from patent US12344631B2

test system: AREc32 reporter cell line (antioxidant response element of rat Gsta2, Nrf2 target gene); experiment: AREc32 luciferase reporter activation; type: cell-based, human; settings: human, Arec32, 19 h; concentration increasing luminescence signal 2-fold above vehicle; nineteen hours; read-out: AREc32 EC2X (nM) (Mean ± SD)
# EC (2-fold) >= 20 nM gives Satisfied, anything below gives Not satisfied

Request: Quick check, EC (2-fold) >= 20 nM? CC1(C)CC[C@]2(c3nc(CF)no3)CC[C@]3(C)[C@H](C(=O)C=C4[C@@]5(C)C=C(C#N)C(=O)C(C)(C)[C@@H]5CC[C@]43C)[C@@H]2C1 [Compound T12]
Result: Not satisfied

Request: Then this compound: C[C@@H]1C(=O)C(C#N)=C[C@]2(C)C3=CC(=O)[C@@H]4[C@@H]5CC(C)(C)CC[C@]5(c5nc(CF)no5)CC[C@@]4(C)[C@]3(C)CC[C@@H]12 [Compound T34]
Result: Not satisfied

Request: Then this compound: CCc1nnc([C@]23CCC(C)(C)C[C@H]2[C@H]2C(=O)C=C4[C@@]5(C)C=C(C#N)C(=O)C(C)(C)[C@@H]5CC[C@@]4(C)[C@]2(C)CC3)o1 [Compound T46]
Result: Satisfied

Request: Then this compound: CC1(C)CC[C@]2(c3nc(C4CC4)no3)CC[C@]3(C)[C@H](C(=O)C=C4[C@@]5(C)C=C(C#N)C(=O)C(C)(C)[C@@H]5CC[C@]43C)[C@@H]2C1 [Compound T29]
Result: Satisfied

Request: Then this compound: Cn1nnc([C@]23CCC(C)(C)C[C@H]2[C@H]2C(=O)C=C4[C@@]5(C)C=C(C#N)C(=O)C(C)(C)[C@@H]5CC[C@@]4(C)[C@]2(C)CC3)n1 [Compound T21]
Result: Not satisfied

Request: Then this compound: CC1(C)CC[C@]2(c3noc(CN)n3)CC[C@]3(C)[C@H](C(=O)C=C4[C@@]5(C)C=C(C#N)C(=O)C(C)(C)[C@@H]5CC[C@]43C)[C@@H]2C1 [Compound T2]
Result: Not satisfied

Request: Then this compound: CC1(C)CC[C@]2(c3noc(CF)n3)CC[C@]3(C)[C@H](C(=O)C=C4[C@@]5(C)C=C(C#N)C(=O)C(C)(C)[C@@H]5CC[C@]43C)[C@@H]2C1 [Compound T1]
Result: Not satisfied

Request: Then this compound: Cc1nnc([C@]23CCC(C)(C)C[C@H]2[C@H]2C(=O)C=C4[C@@]5(C)C=C(C#N)C(=O)C(C)(C)[C@@H]5CC[C@@]4(C)[C@]2(C)CC3)o1 [CC1, reference compound]
Result: Not satisfied

Request: Then this compound: C[C@@H]1C(=O)C(C#N)=C[C@]2(C)C3=CC(=O)[C@@H]4[C@@H]5CC(C)(C)CC[C@]5(c5nc(C(F)F)no5)CC[C@@]4(C)[C@]3(C)CC[C@@H]12 [Compound T35]
Result: Not satisfied

Request: Then this compound: CC1(C)CC[C@]2(c3nc(C(F)F)no3)CC[C@]3(C)[C@H](C(=O)C=C4[C@@]5(C)C=C(C#N)C(=O)C(C)(C)[C@@H]5CC[C@]43C)[C@@H]2C1 [Compound T43]
Result: Not satisfied

Request: Then this compound: CC1(C)CC[C@]2(c3nc(CCO)no3)CC[C@]3(C)[C@H](C(=O)C=C4[C@@]5(C)C=C(C#N)C(=O)C(C)(C)[C@@H]5CC[C@]43C)[C@@H]2C1 [Compound T13]
Result: Not satisfied

Request: Then this compound: CC1(C)CC[C@]2(c3noc(C(F)F)n3)CC[C@]3(C)[C@H](C(=O)C=C4[C@@]5(C)C=C(C#N)C(=O)C(C)(C)[C@@H]5CC[C@]43C)[C@@H]2C1 [Compound T41]
Result: Satisfied

Request: Then this compound: COCCc1nc([C@]23CCC(C)(C)C[C@H]2[C@H]2C(=O)C=C4[C@@]5(C)C=C(C#N)C(=O)C(C)(C)[C@@H]5CC[C@@]4(C)[C@]2(C)CC3)no1 [Compound T6]
Result: Not satisfied

Request: Then this compound: CC1(C)CC[C@]2(c3nnc(C(F)F)o3)CC[C@]3(C)[C@H](C(=O)C=C4[C@@]5(C)C=C(C#N)C(=O)C(C)(C)[C@@H]5CC[C@]43C)[C@@H]2C1 [Compound T44]
Result: Not satisfied

Request: Then this compound: CC1(C)CC[C@]2(c3nc(C(F)(F)F)no3)CC[C@]3(C)[C@H](C(=O)C=C4[C@@]5(C)C=C(C#N)C(=O)C(C)(C)[C@@H]5CC[C@]43C)[C@@H]2C1 [Compound T22]
Result: Satisfied

Request: Then this compound: CC1(C)CC[C@]2(c3noc(CCO)n3)CC[C@]3(C)[C@H](C(=O)C=C4[C@@]5(C)C=C(C#N)C(=O)C(C)(C)[C@@H]5CC[C@]43C)[C@@H]2C1 [Compound T5]
Result: Not satisfied

Request: Then this compound: CC1(C)CC[C@]2(c3noc(C4CC4)n3)CC[C@]3(C)[C@H](C(=O)C=C4[C@@]5(C)C=C(C#N)C(=O)C(C)(C)[C@@H]5CC[C@]43C)[C@@H]2C1 [Compound T25]
Result: Satisfied
